- target desc: T1, CD40-human Fc (huFc) fusion protein (Creative BioMart) (human, UniProt P25942 21-193)
- T1 construct: bought; also called CD40-huFc; not shown: human Fc
- T1 sequence (P25942 21-193 limits assumed): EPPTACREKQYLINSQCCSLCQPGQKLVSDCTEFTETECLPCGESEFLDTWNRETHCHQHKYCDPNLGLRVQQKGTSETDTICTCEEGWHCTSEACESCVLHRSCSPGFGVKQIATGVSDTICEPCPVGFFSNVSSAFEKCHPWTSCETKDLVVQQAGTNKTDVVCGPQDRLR
- procedure details: ELISA: CD40-huFc mixed with antibody, binding to plate-bound HA-tagged CD40L; also: test concentration or dose not given here
# OD450 with anti-CD40 antibody values compiled below
assay metric: OD450 with anti-CD40 antibody (OD450)

[
  {
    "binder": "AD175.14.11 (antibody, V domains shown, mouse hybridoma monoclonal; also called muAb3) VH: EVQLQQSGPELVKPGASVKISCKASGYTFTDYYMNWVKQSHGKSLEWIGDINPNNGGTSYNQKFKGKATLTVDKSSSTAYMELRSLTSEDSAVYYCARRGGLGRGTYALDYWGQGTSVTVSS VL: DIQMTQTTSSLSASLGDRVTISCRASQDISNYLNWYQQKPDGTVKPLIYYTSRLHLGVPSRFSGSGSGTDYSLTISNLEQEDIATYFCQQGNTLPLTFGAGTKLELK",
    "assay metric": "OD450 with anti-CD40 antibody",
    "readout units": "OD450",
    "assay value": 0.068
  },
  {
    "binder": "AD166.4.4 (antibody, V domains shown, mouse hybridoma monoclonal; also called muAb2) VH: QVQLQQSGAELMKPGASAKLSCKATGYTFTGYWIQWVKQRPGHGLEWIGEILPGGDHTKYNEKFRGKATFTSDTSSNTVYMQLSSLTTEDSAIYYCARVGGDYWGQGTTLTVSS VL: DVVMTQTPLSLPVSLGDQASISCRSSQSLVNSNENTYLHWYLQKPGQSPKLLIYKVFNRYSGVPDRFSGSGSGTDFTLKISRVEAEDLGVYFCFQSTHVPWTFGGGTKLEIK",
    "assay metric": "OD450 with anti-CD40 antibody",
    "readout units": "OD450",
    "assay value": 1.02
  },
  {
    "binder": "AD165.1.2 (antibody, V domains shown, mouse hybridoma monoclonal; also called muAb5) VH: DVQLQESGPGLVEPSQSLFLTCSVTGYSITTNYNWNWIRQFPGNKLEWMGYIRHDGTNNYNPSLKNRISIIRDTPKNQFFLKLNSVTTEDTAIYFCTRLDYWGQGTSVTVSS VL: DAVMTQTPLSLPVSLGDQASISCRSSQSLENSYGNTFLNWFLQRPGQSPQLLIYRVSNRFCGVPDRFSGSGSGTDFTLKISRVEAEDLGIYFCLQVTHVPYTFGGGTKLEIK",
    "assay metric": "OD450 with anti-CD40 antibody",
    "readout units": "OD450",
    "assay value": 0.989
  },
  {
    "binder": "AD163.162.1 (antibody, V domains shown, mouse hybridoma monoclonal; also called muAb6) VH: QVQLQQPGAELVRPGSSVKLSCKASGYTFTSYWMHWVKQRPIQGLEWIGNIDPSNGETHYNQKFKDKATLTVDKSSSTAYMQLSSLTSEDSAVYYCARERIYYSGSTYDGYFDVWGTGTTVTVSS VL: QIVLTQSPAIMSASPGEKVTMTCSASSSLSYMHWYQQKSGTSPKRWIYDTSKLASGVPARFSGSGSGTSYSLTISSMEAEDAATYYCQQWSSNPWTFGGGTKLEIK",
    "assay metric": "OD450 with anti-CD40 antibody",
    "readout units": "OD450",
    "assay value": 0.455
  },
  {
    "binder": "AD164.76.3 (antibody, V domains shown, mouse hybridoma monoclonal; also called muAb10) VH: DVQLQESGPGLVKPSQSLSLTCSVTGYSITSNYYWNWIRQFPGNKLEWMGYIRYDGSNNYNPSLKNRISITRDTSKNQFFLRLNSVTTEDTATYYCTRLDYWGQGTTLTVSS VL: DAVMTQTPLSLPVSLGDQASISCRSSQSLENSNGNTFLNWFLQKPGQSPQLLIYRISNRFSGVPDRFSGSGSGTDFTLKISRVEAEDLGVYFCLQVTHVPFTFGSGTKLEIK",
    "assay metric": "OD450 with anti-CD40 antibody",
    "readout units": "OD450",
    "assay value": 2.11
  },
  {
    "binder": "AD163.7.2 (antibody, V domains shown, mouse hybridoma monoclonal; also called muAb8) VH: QVQLQQSGPELVKSGASVKISCKASGYTFTDYYINWVKQRPGQGLEWIGWIFPGSGSVYCNEQFKGQATLTVDRSSSTAYMLLSSLTSEDSAVYFCASSLGKFAYWGQGTLVTVSA VL: DIVMTQSQKFMSTTVGDRVSITCKASQSVVTAVAWYQQKPGQSPKLLIYSASNRYTGVPDRFTGSGSGTDFALTIRTMQSEDLADYFCQQYSSYPYTFGGGTKLEIK",
    "assay metric": "OD450 with anti-CD40 antibody",
    "readout units": "OD450",
    "assay value": 0.066
  }
]

Values were extracted from patent US20210277137A1.
